- Tested on: E. cloacae 963
- protocol_summary: in vitro antibacterial activity, agar plate dilution method
- Type: cell-based
- condition_parameters: Enterobacter cloacae, 963, 16 h
Would you kindly list MIC for each of these molecules?
// note: answer is a bare numeric in µg/mL

q: Checklist item: MIC tested on E. cloacae 963, entry C=C(O/N=C(\C(=O)N[C@@H]1C(=O)N2C(C(=O)O)=C(CSc3nc(-c4ccc(O)c(O)c4)cs3)CS[C@H]12)c1csc(N)n1)C(=O)O [Example 12] , value?
a: 0.2

q: // next record C=C(O/N=C(\C(=O)N[C@@H]1C(=O)N2C(C(=O)O)=C(CSc3nnc(-c4ccc(O)c(O)c4)s3)CS[C@H]12)c1csc(N)n1)C(=O)O [Example 13]
a: 0.05

q: Also check C=C(O/N=C(\C(=O)N[C@@H]1C(=O)N2C(C(=O)O)=C(CSc3ncc(-c4ccc(O)c(O)c4)o3)CS[C@H]12)c1csc(N)n1)C(=O)O [Example 14]
a: 0.39

q: // next record C=C(O/N=C(\C(=O)N[C@@H]1C(=O)N2C(C(=O)[O-])=C(C[n+]3cccc(C(=O)O)c3)CS[C@H]12)c1csc(N)n1)C(=O)O [Example 3]
a: 0.1

q: And what about the molecule CO/N=C(\C(=O)N[C@@H]1C(=O)N2C(C(=O)O)=C(COC(C)=O)CS[C@H]12)c1csc(N)n1 [Cefotaxime, reference compound] ?
a: 0.05

q: Now consider C=C(O/N=C(\C(=O)N[C@@H]1C(=O)N2C(C(=O)O)=C(CSc3nnnn3CC(=O)O)CS[C@H]12)c1csc(N)n1)C(=O)O [Example 20] .
a: 0.39

* * *

- System: K. oxytoca GN10650*
- protocol_summary: in vitro antibacterial activity, agar plate dilution method
- Format: cell-based
- condition_parameters: Klebsiella oxytoca, GN10650, 16 h
readout_name: MIC (µg/mL)
Your answer should be a plain number; it is taken to be in µg/mL.

q: Could you share which MIC value was measured for C=C(O/N=C(\C(=O)N[C@@H]1C(=O)N2C(C(=O)[O-])=C(C[n+]3cccc(C(N)=O)c3)CS[C@H]12)c1csc(N)n1)C(=O)O ?
a: 0.1

q: Same lookup for C=C(O/N=C(\C(=O)N[C@@H]1C(=O)N2C(C(=O)O)=C(CSc3nnnn3CC(=O)O)CS[C@H]12)c1csc(N)n1)C(=O)O , please.
a: 0.39

q: And C=C(O/N=C(\C(=O)N[C@@H]1C(=O)N2C(C(=O)O)=C(COC(C)=O)CS[C@H]12)c1csc(N)n1)C(=O)O ?
a: 0.05
